These data points were gathered from patent KR20130126543A.

Molecular target: T1, IL-6R-Fc 항원 (human, UniProt P08887 20-365, limits assumed)
T1 construct: domain: IL-6R full domain; Made in-house as IL-6R-Fc; also called IL-6R full; IL-6R full domain인 단백질; not shown: Fc part (vector pYK 604)
T1 sequence (looked up): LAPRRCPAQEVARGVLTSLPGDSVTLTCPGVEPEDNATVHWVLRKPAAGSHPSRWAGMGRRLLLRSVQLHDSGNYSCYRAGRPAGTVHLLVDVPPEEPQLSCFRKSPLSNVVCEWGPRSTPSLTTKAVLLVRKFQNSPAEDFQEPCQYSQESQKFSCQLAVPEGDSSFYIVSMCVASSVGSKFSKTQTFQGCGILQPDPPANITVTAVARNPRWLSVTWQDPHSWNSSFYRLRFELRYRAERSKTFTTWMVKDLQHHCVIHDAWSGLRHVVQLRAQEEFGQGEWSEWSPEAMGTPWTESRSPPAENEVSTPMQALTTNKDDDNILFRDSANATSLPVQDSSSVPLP
Experiment: ELISA; IL-6R coated 100 ng/well; IgG at 0.09766 nM; anti-Fab-HRP

Binder	OD 490 nm
항 IL-6R 단클론 항체 F2 (antibody, V domains shown) VH: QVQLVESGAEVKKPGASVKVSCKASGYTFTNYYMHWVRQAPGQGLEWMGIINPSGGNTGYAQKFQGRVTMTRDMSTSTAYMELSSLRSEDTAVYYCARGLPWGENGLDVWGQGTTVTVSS VL: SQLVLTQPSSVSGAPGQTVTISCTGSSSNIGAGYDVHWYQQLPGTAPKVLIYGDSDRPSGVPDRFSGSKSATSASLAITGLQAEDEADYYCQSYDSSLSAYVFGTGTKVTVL	0.743 OD490
